tested on: IL-6 levels in human whole blood stimulated with a TLR2 agonist; assay: IRAK4 Whole Blood Assay (lipoteichoic acid/TLR2-stimulated IL-6); assay type: cell-based; conditions: Homo sapiens, lipoteichoic acid 10 μg/mL, IL-6 readout
measuredMetric: EC50 (nM)

{"chemicalStructure": "CC(C)(O)[C@H](F)CNC(=O)c1cnc(-c2cnn3cc(C#N)cnc23)cc1Nc1ccn(CC(F)F)n1", "EC50 [nM]": 430}
{"chemicalStructure": "CC(C)(O)[C@H](F)CNC(=O)c1cnc(-c2cnn3cc(C#N)cnc23)cc1Nc1cnn(C(F)F)c1", "EC50 [nM]": 540}

a = CC(C)(O)[C@H](F)CNC(=O)c1cnc(-c2cnc3cc(Cl)cnn23)cc1NCCC(F)(F)F
b = COCCn1cc(Nc2cc(-c3cnn4cc(Cl)cnc34)ncc2C(=O)NC[C@@H](F)C(C)(C)O)cn1
c = CC(C)Nc1cc(-c2cnc3cc(C#N)cnn23)ncc1C(=O)NCCc1ccccn1
d = CC(C)(F)Cn1cc(Nc2cc(-c3cnn4cc(Cl)cnc34)ncc2C(=O)NC[C@@H](F)C(C)(C)O)cn1
e = O=C(N[C@H]1CC[C@H](O)CC1)c1cnc(-c2cnn3cc(Cl)cnc23)cc1Nc1cnn(CC(F)F)c1
Sequence the entries by EC50, beginning with the highest number. Returns: the labels arranged in the requested order.
e, a, c, d, b
(e: 930 nM, a: 610 nM, c: 310 nM, d: 170 nM, b: 60 nM)

FYI, the data here is from patent US10618903B2.
